TEST_TARGET: EZH2 within the PRC2 complex (Homo sapiens)
Construct: FLAG; made in house; host or cells: Sf9 cells
METHOD_DESCRIPTION: Assay Protocol 1: EZH2 methyltransferase scintillation proximity assay, mononucleosome substrate
Format: biochemical
Structures can show the parent of a compound that is named as a salt.
READOUT_NAME: IC50 (nM)
Just the number in nM, nothing appended.

Prompt: Give the reported IC50 for Cc1cc2c(c(=O)[nH]1)CNC(=O)c1cc(Cl)cc(O[C@H]3CC[C@H](N)CC3)c1C/C=C\CC2 [Example 4, hydrochloride] (system: EZH2 within the PRC2 complex (Homo sapiens)).
Completion: 2510

----------
TEST_TARGET: EZH2 within the PRC2 complex (Homo sapiens, UniProt Q15910)
Construct: FLAG; made in house; host or cells: Sf9 cells
Sequence (Q15910 whole entry): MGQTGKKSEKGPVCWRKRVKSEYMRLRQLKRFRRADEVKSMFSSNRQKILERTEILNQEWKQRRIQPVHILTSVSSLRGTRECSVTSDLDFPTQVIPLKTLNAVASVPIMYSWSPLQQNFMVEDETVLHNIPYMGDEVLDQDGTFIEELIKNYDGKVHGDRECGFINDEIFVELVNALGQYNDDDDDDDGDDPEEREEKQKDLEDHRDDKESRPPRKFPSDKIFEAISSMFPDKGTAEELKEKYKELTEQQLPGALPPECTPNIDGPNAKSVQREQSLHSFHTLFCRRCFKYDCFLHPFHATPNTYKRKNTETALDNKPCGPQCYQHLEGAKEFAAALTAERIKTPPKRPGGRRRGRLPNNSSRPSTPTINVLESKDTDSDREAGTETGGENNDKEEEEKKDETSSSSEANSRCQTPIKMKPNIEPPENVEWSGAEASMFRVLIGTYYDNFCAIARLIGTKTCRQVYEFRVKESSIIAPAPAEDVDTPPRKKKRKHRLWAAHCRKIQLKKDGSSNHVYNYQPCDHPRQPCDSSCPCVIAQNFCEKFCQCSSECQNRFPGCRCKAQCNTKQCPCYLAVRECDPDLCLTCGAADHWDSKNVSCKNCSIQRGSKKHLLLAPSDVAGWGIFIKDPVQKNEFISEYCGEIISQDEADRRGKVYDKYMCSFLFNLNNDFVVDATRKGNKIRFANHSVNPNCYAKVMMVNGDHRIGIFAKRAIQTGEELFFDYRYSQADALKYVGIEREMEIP
Sequence (O75530 whole entry partner): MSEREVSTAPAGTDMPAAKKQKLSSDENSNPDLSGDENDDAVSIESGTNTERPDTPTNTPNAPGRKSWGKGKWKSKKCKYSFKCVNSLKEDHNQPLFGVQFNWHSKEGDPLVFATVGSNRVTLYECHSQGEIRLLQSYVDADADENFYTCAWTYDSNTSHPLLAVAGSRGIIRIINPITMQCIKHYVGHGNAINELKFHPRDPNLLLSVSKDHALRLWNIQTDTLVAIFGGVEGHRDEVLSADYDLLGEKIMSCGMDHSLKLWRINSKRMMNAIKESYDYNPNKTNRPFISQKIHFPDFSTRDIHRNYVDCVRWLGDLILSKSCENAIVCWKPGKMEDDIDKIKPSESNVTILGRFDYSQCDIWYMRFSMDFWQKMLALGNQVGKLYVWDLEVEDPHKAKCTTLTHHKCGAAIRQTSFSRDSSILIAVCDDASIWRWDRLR
Sequence (Q15022 whole entry partner): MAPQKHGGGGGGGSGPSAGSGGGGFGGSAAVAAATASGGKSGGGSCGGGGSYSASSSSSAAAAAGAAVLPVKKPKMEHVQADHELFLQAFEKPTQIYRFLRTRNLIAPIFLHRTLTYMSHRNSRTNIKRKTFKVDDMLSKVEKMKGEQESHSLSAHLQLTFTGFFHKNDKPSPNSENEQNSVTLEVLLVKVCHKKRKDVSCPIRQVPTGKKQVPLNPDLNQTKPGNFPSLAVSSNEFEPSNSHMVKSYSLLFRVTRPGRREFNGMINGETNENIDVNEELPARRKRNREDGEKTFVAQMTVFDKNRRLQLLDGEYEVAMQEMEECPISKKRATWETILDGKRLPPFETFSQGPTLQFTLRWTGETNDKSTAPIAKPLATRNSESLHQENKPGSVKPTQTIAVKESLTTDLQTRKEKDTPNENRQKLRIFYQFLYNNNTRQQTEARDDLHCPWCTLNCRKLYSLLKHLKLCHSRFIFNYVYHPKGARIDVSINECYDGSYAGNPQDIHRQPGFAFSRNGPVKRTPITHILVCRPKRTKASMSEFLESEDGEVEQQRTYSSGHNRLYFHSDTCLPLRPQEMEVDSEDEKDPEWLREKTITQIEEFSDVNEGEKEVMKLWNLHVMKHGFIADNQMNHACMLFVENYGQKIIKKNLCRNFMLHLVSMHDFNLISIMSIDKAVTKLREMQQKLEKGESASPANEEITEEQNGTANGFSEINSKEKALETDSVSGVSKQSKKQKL
Sequence (Q09028 whole entry partner): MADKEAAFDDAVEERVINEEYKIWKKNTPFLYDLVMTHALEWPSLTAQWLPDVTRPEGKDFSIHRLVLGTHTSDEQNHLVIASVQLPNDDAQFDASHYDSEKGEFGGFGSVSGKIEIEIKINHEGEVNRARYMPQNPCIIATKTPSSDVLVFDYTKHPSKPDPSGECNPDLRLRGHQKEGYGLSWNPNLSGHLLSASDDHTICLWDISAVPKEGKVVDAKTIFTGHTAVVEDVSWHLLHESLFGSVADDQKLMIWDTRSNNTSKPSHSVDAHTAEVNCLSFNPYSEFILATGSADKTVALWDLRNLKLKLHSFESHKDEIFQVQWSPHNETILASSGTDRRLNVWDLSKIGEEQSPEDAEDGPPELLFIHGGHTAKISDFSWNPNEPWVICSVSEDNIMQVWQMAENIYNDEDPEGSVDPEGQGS
Sequence (Q6ZN18 whole entry partner): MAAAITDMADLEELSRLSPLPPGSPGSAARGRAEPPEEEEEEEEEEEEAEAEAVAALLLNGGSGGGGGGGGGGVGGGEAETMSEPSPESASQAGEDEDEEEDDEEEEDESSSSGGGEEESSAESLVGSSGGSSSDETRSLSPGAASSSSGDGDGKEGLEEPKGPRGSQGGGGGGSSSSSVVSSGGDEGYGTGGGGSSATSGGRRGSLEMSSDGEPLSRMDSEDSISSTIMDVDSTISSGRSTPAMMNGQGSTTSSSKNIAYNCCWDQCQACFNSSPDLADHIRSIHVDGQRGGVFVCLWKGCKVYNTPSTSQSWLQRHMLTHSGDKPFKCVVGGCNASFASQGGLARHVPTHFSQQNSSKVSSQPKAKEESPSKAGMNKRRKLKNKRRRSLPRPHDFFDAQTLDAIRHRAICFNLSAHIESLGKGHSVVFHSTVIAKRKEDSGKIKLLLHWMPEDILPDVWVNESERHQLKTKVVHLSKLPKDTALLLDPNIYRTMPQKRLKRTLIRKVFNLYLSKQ
METHOD_DESCRIPTION: Assay Protocol 2: EZH2 methyltransferase scintillation proximity assay, biotinylated histone H3 peptide substrate
Assay type: biochemical
DETAILS: SPA, 3H-SAM, biotinylated unmethylated histone H3K27 peptide substrate, 5-member PRC2 complex
READOUT_NAME: pIC50
Quick note: pIC50 values are minus log10 of concentrations in mol/L.

Sample records with pIC50:
• CCN(c1cccc2c1C/C=C/CCc1cc(C)[nH]c(=O)c1CNC2=O)C1CCN(N(C)C)CC1 [Example 65] = 6.50
• CCN(c1cccc2c1C/C=C/CCCc1cc(C)[nH]c(=O)c1CNC2=O)C1CCNCC1 [Example 40] = 7.00
• Cc1cc2c(c(=O)[nH]1)CNC(=O)c1cc(Cl)cc(O[C@H]3CC[C@H](N(C)C)CC3)c1C/C=C/CCC2 [Example 8] = 6.60
• CCN(c1cccc2c1C/C=C\CCCc1cc(C)[nH]c(=O)c1CNC2=O)C1CCOCC1 [Example 21] = 6.40
• Cc1cc2c(c(=O)[nH]1)CNC(=O)c1cccc(O[C@H]3CC[C@H](N(C)C)CC3)c1C/C=C/CC2 [Example 84] = 6.70

Prompt: Entry CCN(c1cccc2c1C/C=C/CCc1cc(C)[nH]c(=O)c1CNC2=O)C1CCC2(CC1)CNC2 [Example 66] has what pIC50?
Completion: 6.60

Prompt: Entry CCN(c1cccc2c1C/C=C/CCc1cc(C)[nH]c(=O)c1CNC2=O)C1CC2(CC(N)C2)C1 (centres unmarked) [Example 70] has what pIC50?
Completion: 6.90

Prompt: Entry CCN(c1cccc2c1C/C=C/CCc1cc(C)[nH]c(=O)c1CNC2=O)C1CCN(C)CC1 [Example 33] has what pIC50?
Completion: 6.70

----------
TEST_TARGET: EZH2 within the PRC2 complex (Homo sapiens)
Construct: FLAG; made in house; host or cells: Sf9 cells
METHOD_DESCRIPTION: Assay Protocol 2: EZH2 methyltransferase scintillation proximity assay, biotinylated histone H3 peptide substrate
Type: biochemical
DETAILS: SPA, 3H-SAM, biotinylated unmethylated histone H3K27 peptide substrate, 5-member PRC2 complex
Structures can show the parent of a compound that is named as a salt.
Consider the cut-off 200 nM. If the recorded IC50 is strictly smaller, the label is Y; if not, the label is N.

Would you please look over these solved cases?
• CCN(c1cccc2c1C/C=C/CCc1cc(C)[nH]c(=O)c1CNC2=O)C1CCCNCC1 (stereo not drawn) [Example 77] = Y
• CCN(c1cccc2c1C/C=C\CNCc1cc(C)[nH]c(=O)c1CNC2=O)C1CCOCC1 [Example 39] = N
• CCN(c1cccc2c1C/C=C/CCc1cc(C)[nH]c(=O)c1CNC2=O)C1CC2(CCN(C)CC2)C1 [Example 69] = Y
• CCN(c1cccc2c1C/C=C/CCc1cc(C)[nH]c(=O)c1CNC2=O)[C@H]1CC[C@H](NCC(F)(F)F)CC1 [Example 58] = Y
• CCN1CCC(N(CC)c2cccc3c2C/C=C/CCc2cc(C)[nH]c(=O)c2CNC3=O)CC1 [Example 44] = Y
• CCN(c1cccc2c1C/C=C/CCc1cc(C)[nH]c(=O)c1CNC2=O)[C@H]1CC[C@H](NC)CC1 [Example 73, formic acid salt] = Y
• CCN(c1cccc2c1C/C=C/CNCc1cc(C)[nH]c(=O)c1CNC2=O)C1CCOCC1 [Example 38] = Y
• Cc1cc2c(c(=O)[nH]1)CNC(=O)c1cccc(N(CCO)C3CCOCC3)c1C/C=C/CC2 [Example 64] = N
• CCN(c1cccc2c1C/C=C/CCCc1cc(C)[nH]c(=O)c1CNC2=O)C1CCOCC1 [Example 19] = Y
• CCN(c1cccc2c1C/C=C/CCc1cc(C)[nH]c(=O)c1CNC2=O)C1CCN(Cc2cccc(C)n2)CC1 [Example 48] = N

Prompt: Determine whether this compound shows IC50 lower than 200 nM (ties excluded): CCN(c1nccc2c1C/C=C/CCc1cc(C)[nH]c(=O)c1CNC2=O)C1CCOCC1 [Example 63]
Completion: N

Prompt: Determine whether this compound shows IC50 lower than 200 nM (ties excluded): CCN(c1cccc2c1C/C=C/CCc1cc(C)[nH]c(=O)c1CNC2=O)[C@H]1CC[C@H](N2CC(F)C2)CC1 [Example 76]
Completion: Y

Prompt: Determine whether this compound shows IC50 lower than 200 nM (ties excluded): Cc1cc2c(c(=O)[nH]1)CNC(=O)c1cc(Cl)cc(O[C@H]3CC[C@H](N(C)C)CC3)c1C/C=C/CC2 [Example 2]
Completion: Y

Prompt: Determine whether this compound shows IC50 lower than 200 nM (ties excluded): CCN(c1cccc2c1C/C=C/CCc1cc(C)[nH]c(=O)c1CNC2=O)[C@H]1CC[C@@H](N(C)C)CC1 [Example 55]
Completion: N
